# Test system: K. pneumoniae NCTC8172
# protocolNotes: MIC susceptibility testing, broth microdilution in CaMHB
# Type: cell-based, Klebsiella pneumoniae
# assayContext: Table 4A, different batches of cation-adjusted Muller-Hinton broth
Counter-ions that a name gives are not always drawn. Where a SMILES comes first, the peptide text is derived from it. Bridges are numbered along the chain shown (N, C = ends). [ ]: non-standard residue; d: D form. The star is where a group is joined. ξ: configuration not given here. ξβ3hGly(cHex) = NC(CC(=O)*)C1CCCCC1; Thr(3ξ) = CC(O)[C@H](N)C(=O)O; X5 = CC(C)[C@H](N)CCC(=O)*; Dab = NCC[C@H](N)C(=O)O; X1 = CCCCCCC(O)C(=O)*; Ava = NCCCCC(=O)O
Measured MIC values are reported for all entries that follow.

compound | relationSign | MIC (micrograms/mL)
CC(C)C[C@@H]1NC(=O)[C@@H](Cc2ccccc2)NC(=O)[C@H](CCN)NC(=O)[C@@H](NC(=O)[C@H](CCN)NC(=O)[C@@H](NC(=O)CC[C@@H](N)C(C)C)C(C)O)CCNC(=O)[C@H](C(C)O)NC(=O)[C@H](CCN)NC(=O)[C@H](CCN)NC1=O (stereo partly shown) [Example 29] (X5-[Thr(3ξ)][Dab][Dab][Dab][dF]L[Dab][Dab][Thr(3ξ)]; lactam 3-C) | > | 32
CCCCCCC(O)C(=O)N[C@H](C(=O)N[C@@H](CCN)C(=O)N[C@H]1CCNC(=O)[C@H](C(C)O)NC(=O)[C@H](CCN)NC(=O)[C@H](CCN)NC(=O)[C@H](CC(C)C)NC(=O)[C@@H](Cc2ccccc2)NC(=O)[C@H](CCN)NC1=O)C(C)O (stereo partly shown) [Example 2, Sulphate Salt] (X1-[Thr(3ξ)][Dab][Dab][Dab][dF]L[Dab][Dab][Thr(3ξ)]; lactam 3-C) | = | 4
CC(C)C[C@@H]1NC(=O)[C@@H](Cc2ccccc2)NC(=O)[C@H](CCN)NC(=O)[C@@H](NC(=O)[C@H](CCN)NC(=O)[C@@H](NC(=O)CC(N)C2CCCCC2)C(C)O)CCNC(=O)[C@H](C(C)O)NC(=O)[C@H](CCN)NC(=O)[C@H](CCN)NC1=O (stereo partly drawn) [Example 14, Sulphate Salt] ({ξβ3hGly(cHex)}-[Thr(3ξ)][Dab][Dab][Dab][dF]L[Dab][Dab][Thr(3ξ)]; lactam 3-C) | > | 32
CC(C)C[C@@H]1NC(=O)[C@@H](Cc2ccccc2)NC(=O)[C@H](CCN)NC(=O)[C@@H](NC(=O)[C@H](CCN)NC(=O)[C@@H](NC(=O)CCCCN)C(C)O)CCNC(=O)[C@H](C(C)O)NC(=O)[C@H](CCN)NC(=O)[C@H](CCN)NC1=O (stereo partly shown) [Example 15, 5-Aminopentanoyl polymyxin B nonapeptide] (H-[Ava][Thr(3ξ)][Dab][Dab][Dab][dF]L[Dab][Dab][Thr(3ξ)]; lactam 4-C) | = | 4

---

# System: K. pneumoniae NCTC7427
# protocolNotes: MIC susceptibility testing, broth microdilution in CaMHB
# Type: cell-based, Klebsiella pneumoniae
# assayContext: Table 4A, different batches of cation-adjusted Muller-Hinton broth
Counter-ions that a name gives are not always drawn. Where a SMILES comes first, the peptide text is derived from it. Bridges are numbered along the chain shown (N, C = ends). [ ]: non-standard residue; d: D form. The star is where a group is joined. ξ: configuration not given here. ξHexahydromandeloyl = O=C(C(O)C1CCCCC1)*; Thr(3ξ) = CC(O)[C@H](N)C(=O)O; X5 = CC(C)[C@H](N)CCC(=O)*; Dab = NCC[C@H](N)C(=O)O; X1 = CCCCCCC(O)C(=O)*; X4 = CN(C)CCCC(=O)*; Ava = NCCCCC(=O)O
measureName: MIC

compound | measuredTarget | measureName | assayValue
CCCCCCC(O)C(=O)N[C@H](C(=O)N[C@@H](CCN)C(=O)N[C@H]1CCNC(=O)[C@H](C(C)O)NC(=O)[C@H](CCN)NC(=O)[C@H](CCN)NC(=O)[C@H](CC(C)C)NC(=O)[C@@H](Cc2ccccc2)NC(=O)[C@H](CCN)NC1=O)C(C)O (some centres unmarked) [Example 2, Sulphate Salt] (X1-[Thr(3ξ)][Dab][Dab][Dab][dF]L[Dab][Dab][Thr(3ξ)]; lactam 3-C) | K. pneumoniae NCTC7427 | MIC | 0.5 micrograms/mL
CC(C)C[C@@H]1NC(=O)[C@@H](Cc2ccccc2)NC(=O)[C@H](CCN)NC(=O)[C@@H](NC(=O)[C@H](CCN)NC(=O)[C@@H](NC(=O)CC[C@@H](N)C(C)C)C(C)O)CCNC(=O)[C@H](C(C)O)NC(=O)[C@H](CCN)NC(=O)[C@H](CCN)NC1=O (some centres unmarked) [Example 29] (X5-[Thr(3ξ)][Dab][Dab][Dab][dF]L[Dab][Dab][Thr(3ξ)]; lactam 3-C) | K. pneumoniae NCTC7427 | MIC | 0.5 micrograms/mL
CC(C)C[C@@H]1NC(=O)[C@@H](Cc2ccccc2)NC(=O)[C@H](CCN)NC(=O)[C@@H](NC(=O)[C@H](CCN)NC(=O)[C@@H](NC(=O)CCCCN)C(C)O)CCNC(=O)[C@H](C(C)O)NC(=O)[C@H](CCN)NC(=O)[C@H](CCN)NC1=O (some centres unmarked) [Example 15, 5-Aminopentanoyl polymyxin B nonapeptide] (H-[Ava][Thr(3ξ)][Dab][Dab][Dab][dF]L[Dab][Dab][Thr(3ξ)]; lactam 4-C) | K. pneumoniae NCTC7427 | MIC | 0.25 micrograms/mL
CC(C)C[C@@H]1NC(=O)[C@@H](Cc2ccccc2)NC(=O)[C@H](CCN)NC(=O)[C@@H](NC(=O)[C@H](CCN)NC(=O)[C@@H](NC(=O)CCCN(C)C)C(C)O)CCNC(=O)[C@H](C(C)O)NC(=O)[C@H](CCN)NC(=O)[C@H](CCN)NC1=O (some centres unmarked) [Example 18] (X4-[Thr(3ξ)][Dab][Dab][Dab][dF]L[Dab][Dab][Thr(3ξ)]; lactam 3-C) | K. pneumoniae NCTC7427 | MIC | 0.125 micrograms/mL
CC(C)C[C@@H]1NC(=O)[C@@H](Cc2ccccc2)NC(=O)[C@H](CCN)NC(=O)[C@@H](NC(=O)[C@H](CCN)NC(=O)[C@@H](NC(=O)C(O)C2CCCCC2)C(C)O)CCNC(=O)[C@H](C(C)O)NC(=O)[C@H](CCN)NC(=O)[C@H](CCN)NC1=O (some centres unmarked) [Example 34] (ξHexahydromandeloyl-[Thr(3ξ)][Dab][Dab][Dab][dF]L[Dab][Dab][Thr(3ξ)]; lactam 3-C) | K. pneumoniae NCTC7427 | MIC | 0.5 micrograms/mL
